In this section we review reported pIC50 values for a set of compounds.
- experimental.system: Glutamate receptor ionotropic, NMDA 2B (Rattus norvegicus)
- Sequence (Q00960 whole entry): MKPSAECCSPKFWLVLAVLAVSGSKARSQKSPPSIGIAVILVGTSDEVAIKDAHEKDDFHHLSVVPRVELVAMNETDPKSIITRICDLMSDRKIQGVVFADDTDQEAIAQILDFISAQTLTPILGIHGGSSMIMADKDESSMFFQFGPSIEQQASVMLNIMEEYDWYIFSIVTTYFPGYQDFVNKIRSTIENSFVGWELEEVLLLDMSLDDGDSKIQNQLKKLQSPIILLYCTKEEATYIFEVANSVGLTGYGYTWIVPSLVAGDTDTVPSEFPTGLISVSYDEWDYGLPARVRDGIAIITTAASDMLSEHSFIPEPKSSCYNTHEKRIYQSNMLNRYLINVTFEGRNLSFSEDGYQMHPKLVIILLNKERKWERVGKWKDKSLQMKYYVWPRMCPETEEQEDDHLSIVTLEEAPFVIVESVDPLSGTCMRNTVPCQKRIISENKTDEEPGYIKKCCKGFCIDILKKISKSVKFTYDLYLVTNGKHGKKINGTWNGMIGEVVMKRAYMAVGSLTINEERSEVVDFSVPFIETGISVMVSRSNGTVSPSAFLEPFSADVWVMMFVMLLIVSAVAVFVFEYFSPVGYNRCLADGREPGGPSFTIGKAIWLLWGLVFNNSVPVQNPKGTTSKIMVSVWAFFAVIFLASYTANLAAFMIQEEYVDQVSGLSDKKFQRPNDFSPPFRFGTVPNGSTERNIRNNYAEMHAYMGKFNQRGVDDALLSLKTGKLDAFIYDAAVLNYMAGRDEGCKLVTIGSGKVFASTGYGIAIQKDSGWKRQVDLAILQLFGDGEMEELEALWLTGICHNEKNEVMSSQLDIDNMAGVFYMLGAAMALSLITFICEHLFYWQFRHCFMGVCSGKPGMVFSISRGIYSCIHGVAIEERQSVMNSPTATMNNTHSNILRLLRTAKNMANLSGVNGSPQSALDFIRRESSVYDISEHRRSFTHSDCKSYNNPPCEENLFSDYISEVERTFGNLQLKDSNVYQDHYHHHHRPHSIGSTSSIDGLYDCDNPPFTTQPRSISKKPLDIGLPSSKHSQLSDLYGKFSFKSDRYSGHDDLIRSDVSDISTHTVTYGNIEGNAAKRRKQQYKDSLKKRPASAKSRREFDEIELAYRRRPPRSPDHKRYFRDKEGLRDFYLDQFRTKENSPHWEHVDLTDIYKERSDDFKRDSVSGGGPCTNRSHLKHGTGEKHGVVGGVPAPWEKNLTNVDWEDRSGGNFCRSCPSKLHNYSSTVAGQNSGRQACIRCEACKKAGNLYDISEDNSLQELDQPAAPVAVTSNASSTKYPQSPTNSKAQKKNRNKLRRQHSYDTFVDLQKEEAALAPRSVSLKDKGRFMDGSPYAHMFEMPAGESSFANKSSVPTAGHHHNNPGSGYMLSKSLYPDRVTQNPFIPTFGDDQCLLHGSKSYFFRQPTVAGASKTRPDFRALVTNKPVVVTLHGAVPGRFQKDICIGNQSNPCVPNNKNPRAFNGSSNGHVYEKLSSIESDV
- method.description: Displacement of [3H]CP-101606 from NR2B in rat forebrain P2 membrane
pIC50: −log10 of the molar value.

Observe how each entry below is paired with its result.
O=C(CCc1ccccc1)N[C@H]1CC[C@](O)(c2c[nH]cn2)CC1 :: < 5.30
O=C(N[C@H]1CC[C@H](c2ccc(O)cc2)CC1)C1Cc2ccccc2CN1 (some centres undefined) :: < 6.00

Record `Cc1cc([C@H]2CC[C@H](NC(=O)CCc3ccccc3)CC2)ccc1O` , field pIC50: < 5.30

Lab book: pIC50 of `Nc1ccc([C@]2(O)CC[C@@H](NC(=O)CCc3ccccc3)CC2)cn1` noted as < 5.30
